Provide the recorded EC50 for the entries that follow.
system: Human betaherpesvirus 5; assay: Antiviral activity against Human cytomegalovirus AD169 infected in HEL assessed as reduction in virus-induce cytopathicity; format: functional, organism-based; conditions: Human betaherpesvirus 5, AD169
Field: numeric (µM). Do not append units.

Test item Nc1ccn(C[C@@H](CO)OCP(=O)(O)O)c(=O)n1 ; Human betaherpesvirus 5; reported EC50 was 1.14

# CCCCOC(=O)c1ccccc1OP1(=O)CO[C@@H](Cn2cnc3c(N)nc(N)nc32)CO1 (some centres undefined) with Human betaherpesvirus 5: EC50 is 11.5

Observed EC50 on Human betaherpesvirus 5, entry CC(C)OC(=O)[C@@H](CO[P@]1(=O)CO[C@@H](Cn2cnc3c(N)nc(N)nc32)CO1)NC(=O)[C@@H](N)C(C)C , equals 12

EC50 of CCCCCCCCCCCCCCCCCCOCCO[P@]1(=O)CO[C@@H](Cn2cnc3c(N)nc(N)nc32)CO1 , assay on Human betaherpesvirus 5, is 0.015

Note to self: EC50 of CC(C)OC(=O)[C@@H](CO[P@@]1(=O)CO[C@@H](Cn2cnc3c(N)nc(N)nc32)CO1)NC(=O)[C@@H](N)C(C)C with Human betaherpesvirus 5 was 15.2

Form: item Nc1nc(N)c2ncn(C[C@H]3COP(=O)(OCC(F)(F)F)CO3)c2n1 (some centres undefined) ; test system Human betaherpesvirus 5; EC50: 19.1

Summary line: Nc1nc(N)c2ncn(C[C@@H](CO)OCP(=O)(O)OCC(F)(F)F)c2n1 , Human betaherpesvirus 5, reported EC50 = 44

Field EC50 (Human betaherpesvirus 5), entry CCCCCCCCCCCCCCCCCCOCCO[P@@]1(=O)CO[C@@H](Cn2cnc3c(N)nc(N)nc32)CO1 : 0.027

Bench note, Human betaherpesvirus 5: entry CCCCCCCCCCCCCCCCCCOCCOP(=O)(O)CO[C@H](CO)Cn1cnc2c(N)nc(N)nc21 , its EC50 = 0.041

* * *

system: Human betaherpesvirus 5; assay: Antiviral activity against Human cytomegalovirus AD169 infected in HEL assessed as reduction in virus-induce cytopathicity; assay type: functional, organism-based; conditions: Human betaherpesvirus 5, AD169
Rule: EC50 below 7 µM gives 1.0. Equal to or above 7 µM gives 0.0.

Please state whether EC50 is below 7 µM for CCCCCCCCCCCCCCCCOCCCOP(=O)(O)CO[C@H](CO)Cn1cnc2c(N)nc(N)nc21
1.0

Please indicate whether the reported EC50 of CCCCCCCCCCCCCCCCOCCCOP1(=O)CO[C@@H](Cn2cnc3c(N)nc(N)nc32)CO1 (stereo not given in full) is strictly below 7 µM.
1.0

Record Nc1nc(N)c2ncn(C[C@H]3COP(=O)(O)CO3)c2n1 : is its EC50 strictly below 7 µM?
0.0

Threshold test, EC50 < 7 µM: CC(C)(C)C(=O)OCOP(=O)(O)CO[C@H](CO)Cn1cnc2c(N)nc(N)nc21
0.0

hey, is EC50 for CCCCCCCCCCCCCCCCOCCO[P@]1(=O)CO[C@@H](Cn2cnc3c(N)nc(N)nc32)CO1 lower than 7 µM or not?
1.0

hey, is EC50 for Nc1nc2c(ncn2COC(CO)CO)c(=O)[nH]1 lower than 7 µM or not?
0.0

Hello, is EC50 of the following molecule strictly smaller than 7 µM? Nc1nc(N)c2ncn(C[C@@H](CO)OCP(=O)(O)O)c2n1
0.0

Here's an entry: CC(C)(C)C(=O)OCO[P@]1(=O)CO[C@@H](Cn2cnc3c(N)nc(N)nc32)CO1 . Is its EC50 below 7 µM?
0.0

Bench note: check whether CCCCCCCCCCCCCCCCOCCO[P@@]1(=O)CO[C@@H](Cn2cnc3c(N)nc(N)nc32)CO1 shows EC50 below 7 µM
1.0

* * *

assay: Cytotoxicity against human HSB2 cells assessed as change in cell morphology; type: cell-based, CCRF-HSB-2
Please go through the items and note down their MCC.
Record the value in µM, omitting the unit from your answer.

Form field MCC, entry CC(C)(C)C(=O)OCO[P@]1(=O)CO[C@@H](Cn2cnc3c(N)nc(N)nc32)CO1 : 64.7

MCC for CCCCCCCCCCCCCCCCOCCCOP(=O)(O)CO[C@H](CO)Cn1cnc2c(N)nc(N)nc21 is 40

Field MCC (entry CC(C)OC(=O)[C@@H](CO[P@]1(=O)CO[C@@H](Cn2cnc3c(N)nc(N)nc32)CO1)NC(=O)[C@@H](N)C(C)C ) reads 177

The molecule identified as CCCCCCCCCCCCCCCCOCCO[P@]1(=O)CO[C@@H](Cn2cnc3c(N)nc(N)nc32)CO1 registered its MCC at 0.5

The reported MCC of the molecule CC(C)(C)C(=O)OCOP(=O)(O)CO[C@H](CO)Cn1cnc2c(N)nc(N)nc21 was 227

MCC for Nc1nc(N)c2ncn(C[C@@H](CO)OCP(=O)(O)O)c2n1 is 126

// MCC lookup, molecule = CCCCCCCCCCCCCCCCCCOCCO[P@]1(=O)CO[C@@H](Cn2cnc3c(N)nc(N)nc32)CO1 , result: 0.5

Record CCCCCCCCCCCCCCCCCCOCCO[P@@]1(=O)CO[C@@H](Cn2cnc3c(N)nc(N)nc32)CO1 , field MCC: 0.5

Given item CCCCCCCCCCCCCCCCOCCO[P@@]1(=O)CO[C@@H](Cn2cnc3c(N)nc(N)nc32)CO1 , the value recorded as its MCC is 0.5

Noted for CCCCCCCCCCCCCCCCOCCCOP1(=O)CO[C@@H](Cn2cnc3c(N)nc(N)nc32)CO1 (stereo partly specified) : its MCC reads 8.6

// field: MCC; key: CC(C)(C)C(=O)OCOP1(=O)CO[C@@H](Cn2cnc3c(N)nc(N)nc32)CO1 (stereo partly specified) ; value = 62.5

* * *

assay: Cytotoxicity against HEL; format: cell-based; conditions: human, HEL cells
Readout: MCC (mM)
Record the value in mM, omitting the unit from your answer.

Per the records, this compound ( Nc1nc2c(ncn2COCCO)c(=O)[nH]1 ) has MCC equal to 1.58

* * *

Could you please report measured CC50 for the items listed next?
assay: Cytotoxicity against HEL; type: cell-based; conditions: human, HEL cells
Use µM as the unit, but write only the number.

Looking up CCCCCCCCCCCCCCCCCCOCCOP(=O)(O)CO[C@H](CO)Cn1cnc2c(N)nc(N)nc21 , I see its CC50 listed as 18.8

Reported CC50 ( CCCCOC(=O)c1ccccc1OP1(=O)CO[C@@H](Cn2cnc3c(N)nc(N)nc32)CO1 (some centres undefined) ) = 168

Noted for CCCCCCCCCCCCCCCCCCOCCO[P@]1(=O)CO[C@@H](Cn2cnc3c(N)nc(N)nc32)CO1 : its CC50 reads 129

For CCCCCCCCCCCCCCCCOCCO[P@@]1(=O)CO[C@@H](Cn2cnc3c(N)nc(N)nc32)CO1 the compound record lists CC50 as 30

Value of measured CC50 for the entry CCCCCCCCCCCCCCCCCCOCCO[P@@]1(=O)CO[C@@H](Cn2cnc3c(N)nc(N)nc32)CO1 : 15.1

Short answer for CCCCCCCCCCCCCCCCOCCO[P@]1(=O)CO[C@@H](Cn2cnc3c(N)nc(N)nc32)CO1 : CC50 was 28.1

* * *

system: Human alphaherpesvirus 2; assay: Antiviral activity against […] infected in HEL assessed as reduction in virus-induce cytopathicity; format: functional, organism-based; details: Human alphaherpesvirus 2, strain G
Categories are defined by ranges of EC50, namely bottom bin = under 40 nM, middle bin = from 40 nM up to 3000 nM, top bin = 3000 nM and over

Record CC(C)(C)C(=O)OCOP(=O)(O)CO[C@H](CO)Cn1cnc2c(N)nc(N)nc21 — which class?
top bin

Hello team, could you let me know which band the following compound falls into: CCCCCCCCCCCCCCCCCCOCCO[P@@]1(=O)CO[C@@H](Cn2cnc3c(N)nc(N)nc32)CO1
bottom bin

Into which category would you place CCCCOC(=O)c1ccccc1OP1(=O)CO[C@@H](Cn2cnc3c(N)nc(N)nc32)CO1 (stereo partly specified) ?
top bin

Which class is correct for the following compound? CCCCCCCCCCCCCCCCOCCCOP(=O)(O)CO[C@H](CO)Cn1cnc2c(N)nc(N)nc21
bottom bin

Band of Nc1nc(N)c2ncn(C[C@@H](CO)OCP(=O)(O)OCC(F)(F)F)c2n1 ?
top bin

Class (by measured EC50) for CC(C)(C)C(=O)OCO[P@]1(=O)CO[C@@H](Cn2cnc3c(N)nc(N)nc32)CO1
middle bin

Hey, which category is Nc1nc(N)c2ncn(C[C@H]3COP(=O)(O)CO3)c2n1 in, do you know?
top bin

Class for Nc1ccn(C[C@@H](CO)OCP(=O)(O)O)c(=O)n1 ?
middle bin

Into which category would you place CC(C)OC(=O)[C@@H](CO[P@@]1(=O)CO[C@@H](Cn2cnc3c(N)nc(N)nc32)CO1)NC(=O)[C@@H](N)C(C)C ?
middle bin

For CCCCCCCCCCCCCCCCCCOCCO[P@]1(=O)CO[C@@H](Cn2cnc3c(N)nc(N)nc32)CO1 , which EC50 bin applies?
bottom bin

Using the reported EC50, which band applies to CCCCCCCCCCCCCCCCOCCO[P@]1(=O)CO[C@@H](Cn2cnc3c(N)nc(N)nc32)CO1 ?
bottom bin
